TEST_SYSTEM: human c-Met (HGFR), full length, on the cell surface (human, UniProt P08581 25-1390)
Sequence (P08581 25-1390 limits assumed): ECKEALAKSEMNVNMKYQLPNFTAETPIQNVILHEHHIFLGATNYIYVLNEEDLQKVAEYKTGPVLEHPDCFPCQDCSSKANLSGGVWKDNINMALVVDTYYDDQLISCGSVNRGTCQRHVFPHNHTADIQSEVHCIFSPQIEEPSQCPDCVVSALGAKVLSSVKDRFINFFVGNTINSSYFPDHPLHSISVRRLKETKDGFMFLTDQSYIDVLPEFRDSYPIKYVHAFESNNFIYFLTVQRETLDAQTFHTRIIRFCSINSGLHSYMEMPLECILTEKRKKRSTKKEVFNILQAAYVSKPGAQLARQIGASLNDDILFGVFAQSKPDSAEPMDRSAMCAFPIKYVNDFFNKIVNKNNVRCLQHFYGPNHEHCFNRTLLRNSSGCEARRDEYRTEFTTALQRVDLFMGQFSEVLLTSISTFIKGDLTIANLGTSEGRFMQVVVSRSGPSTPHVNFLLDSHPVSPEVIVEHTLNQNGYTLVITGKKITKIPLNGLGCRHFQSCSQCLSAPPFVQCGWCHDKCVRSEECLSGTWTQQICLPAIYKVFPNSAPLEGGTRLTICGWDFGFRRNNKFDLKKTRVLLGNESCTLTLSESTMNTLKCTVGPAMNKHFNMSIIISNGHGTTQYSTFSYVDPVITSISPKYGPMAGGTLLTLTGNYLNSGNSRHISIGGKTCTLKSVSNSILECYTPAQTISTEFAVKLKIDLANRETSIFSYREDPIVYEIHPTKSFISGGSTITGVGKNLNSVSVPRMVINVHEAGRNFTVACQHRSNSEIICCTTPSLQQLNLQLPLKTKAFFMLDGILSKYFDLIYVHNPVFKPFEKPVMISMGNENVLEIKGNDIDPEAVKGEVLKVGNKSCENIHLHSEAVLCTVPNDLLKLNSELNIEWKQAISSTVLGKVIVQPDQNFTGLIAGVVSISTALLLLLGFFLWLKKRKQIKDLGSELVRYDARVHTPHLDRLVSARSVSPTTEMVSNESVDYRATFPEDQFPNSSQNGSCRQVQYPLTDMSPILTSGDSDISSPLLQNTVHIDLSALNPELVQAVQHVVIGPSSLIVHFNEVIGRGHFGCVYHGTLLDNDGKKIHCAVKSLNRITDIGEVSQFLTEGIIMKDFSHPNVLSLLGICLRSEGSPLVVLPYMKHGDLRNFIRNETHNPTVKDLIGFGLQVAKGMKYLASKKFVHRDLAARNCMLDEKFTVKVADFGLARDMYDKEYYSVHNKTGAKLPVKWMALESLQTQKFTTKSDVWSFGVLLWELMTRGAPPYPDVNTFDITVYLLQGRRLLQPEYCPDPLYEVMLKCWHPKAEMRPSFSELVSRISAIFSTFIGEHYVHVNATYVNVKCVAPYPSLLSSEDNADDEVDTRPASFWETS
MEASUREMENT_NOTES: cell-based or functional assay
Assign labels as follows, please: satisfied for IC50 2, in vitro cytotoxicity, PC-3, -HGF below 80 nM; not satisfied for IC50 2, in vitro cytotoxicity, PC-3, -HGF equal to or exceeding 80 nM.

Example entries and their recorded answers appear below.
| BINDER | CATEGORY |
| --- | --- |
| ADC2c (antibody, human IgG1, kappa, V domains shown, vc-seco-DUBA linker-drug on the engineered cysteine at HC position 41 (Kabat); DAR 1.7) VH: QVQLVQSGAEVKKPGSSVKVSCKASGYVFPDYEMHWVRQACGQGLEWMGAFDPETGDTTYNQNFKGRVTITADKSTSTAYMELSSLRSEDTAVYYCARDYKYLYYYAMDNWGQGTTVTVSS VL: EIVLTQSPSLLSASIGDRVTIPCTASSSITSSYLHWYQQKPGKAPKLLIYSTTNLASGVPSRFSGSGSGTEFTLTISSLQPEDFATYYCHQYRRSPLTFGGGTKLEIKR | satisfied |
| ADC2 (antibody, human IgG1, kappa, V domains shown, vc-seco-DUBA linker-drug on the engineered cysteine at HC position 41 (Kabat); DAR 1.7) VH: QVQLQQSGAELVRPGASVKLSCKASGYVFPDYEMHWVKQTCVHGLEWIGAFDPETGDTTYNQNFKGKATLTADKASSTAYMDLRSLTSGDSAVYYCARDYKYLYYYAMDNWGQGTSVTVSS VL: QIVLTQSPAIMSASLGERVTMTCTASSSITSSYLHWYQQKPGSSPKLWIYSTTNLASGVPGRFSGSGSGTSFSLTISSMEAEDAATYYCHQYRRSPLTFGAGTKLELKR | not satisfied |
| ADC3e (antibody, human IgG1, kappa, V domains shown, vc-seco-DUBA linker-drug on the engineered cysteine at HC position 41 (Kabat); DAR 1.9) VH: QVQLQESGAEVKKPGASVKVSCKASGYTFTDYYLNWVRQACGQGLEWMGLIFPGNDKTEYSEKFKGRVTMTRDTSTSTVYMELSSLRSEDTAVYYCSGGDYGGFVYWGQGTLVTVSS VL: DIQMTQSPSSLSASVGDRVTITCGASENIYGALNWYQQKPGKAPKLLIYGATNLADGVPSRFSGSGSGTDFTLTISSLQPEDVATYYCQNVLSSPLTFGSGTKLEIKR | not satisfied |
| ADC2b (antibody, human IgG1, kappa, V domains shown, vc-seco-DUBA linker-drug on the engineered cysteine at HC position 41 (Kabat); DAR 1.7) VH: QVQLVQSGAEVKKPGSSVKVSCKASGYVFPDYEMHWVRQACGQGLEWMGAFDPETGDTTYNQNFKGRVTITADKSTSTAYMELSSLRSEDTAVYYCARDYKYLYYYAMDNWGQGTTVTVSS VL: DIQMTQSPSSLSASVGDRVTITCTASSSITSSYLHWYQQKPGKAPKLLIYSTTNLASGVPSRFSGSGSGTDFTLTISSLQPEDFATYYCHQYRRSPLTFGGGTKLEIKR | not satisfied |

# input # strict comparison: is reported IC50 2, in vitro cytotoxicity, PC-3, -HGF < 80 nM? input = ADC2a (antibody, human IgG1, kappa, V domains shown, vc-seco-DUBA linker-drug on the engineered cysteine at HC position 41 (Kabat); DAR 1.7) VH: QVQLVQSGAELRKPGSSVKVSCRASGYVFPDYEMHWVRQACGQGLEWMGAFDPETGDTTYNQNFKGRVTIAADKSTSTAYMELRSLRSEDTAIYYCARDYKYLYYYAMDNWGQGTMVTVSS VL: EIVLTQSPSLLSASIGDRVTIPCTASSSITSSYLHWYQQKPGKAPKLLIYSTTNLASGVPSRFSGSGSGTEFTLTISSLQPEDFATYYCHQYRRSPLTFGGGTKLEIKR
# output satisfied

Provenance of the data: patent US20240376214A1
